Recorded measurements of BaF3-ROS1-IL3 pIC50, one per entry
target: Ba/F3 cells containing Ros1 wild-type protein (Homo sapiens, UniProt P08922, cells depend on it, form not given); construct: The background only speaks of 'a number of different unrelated proteins' and names SLC34A2-ROS1 for HCC78 cells; test: Ba/F3-Ros1 cell proliferation assay, wild-type Ros1; format: cell-based, murine; settings: without IL-3
Sequence (P08922 whole entry, stated change not applied): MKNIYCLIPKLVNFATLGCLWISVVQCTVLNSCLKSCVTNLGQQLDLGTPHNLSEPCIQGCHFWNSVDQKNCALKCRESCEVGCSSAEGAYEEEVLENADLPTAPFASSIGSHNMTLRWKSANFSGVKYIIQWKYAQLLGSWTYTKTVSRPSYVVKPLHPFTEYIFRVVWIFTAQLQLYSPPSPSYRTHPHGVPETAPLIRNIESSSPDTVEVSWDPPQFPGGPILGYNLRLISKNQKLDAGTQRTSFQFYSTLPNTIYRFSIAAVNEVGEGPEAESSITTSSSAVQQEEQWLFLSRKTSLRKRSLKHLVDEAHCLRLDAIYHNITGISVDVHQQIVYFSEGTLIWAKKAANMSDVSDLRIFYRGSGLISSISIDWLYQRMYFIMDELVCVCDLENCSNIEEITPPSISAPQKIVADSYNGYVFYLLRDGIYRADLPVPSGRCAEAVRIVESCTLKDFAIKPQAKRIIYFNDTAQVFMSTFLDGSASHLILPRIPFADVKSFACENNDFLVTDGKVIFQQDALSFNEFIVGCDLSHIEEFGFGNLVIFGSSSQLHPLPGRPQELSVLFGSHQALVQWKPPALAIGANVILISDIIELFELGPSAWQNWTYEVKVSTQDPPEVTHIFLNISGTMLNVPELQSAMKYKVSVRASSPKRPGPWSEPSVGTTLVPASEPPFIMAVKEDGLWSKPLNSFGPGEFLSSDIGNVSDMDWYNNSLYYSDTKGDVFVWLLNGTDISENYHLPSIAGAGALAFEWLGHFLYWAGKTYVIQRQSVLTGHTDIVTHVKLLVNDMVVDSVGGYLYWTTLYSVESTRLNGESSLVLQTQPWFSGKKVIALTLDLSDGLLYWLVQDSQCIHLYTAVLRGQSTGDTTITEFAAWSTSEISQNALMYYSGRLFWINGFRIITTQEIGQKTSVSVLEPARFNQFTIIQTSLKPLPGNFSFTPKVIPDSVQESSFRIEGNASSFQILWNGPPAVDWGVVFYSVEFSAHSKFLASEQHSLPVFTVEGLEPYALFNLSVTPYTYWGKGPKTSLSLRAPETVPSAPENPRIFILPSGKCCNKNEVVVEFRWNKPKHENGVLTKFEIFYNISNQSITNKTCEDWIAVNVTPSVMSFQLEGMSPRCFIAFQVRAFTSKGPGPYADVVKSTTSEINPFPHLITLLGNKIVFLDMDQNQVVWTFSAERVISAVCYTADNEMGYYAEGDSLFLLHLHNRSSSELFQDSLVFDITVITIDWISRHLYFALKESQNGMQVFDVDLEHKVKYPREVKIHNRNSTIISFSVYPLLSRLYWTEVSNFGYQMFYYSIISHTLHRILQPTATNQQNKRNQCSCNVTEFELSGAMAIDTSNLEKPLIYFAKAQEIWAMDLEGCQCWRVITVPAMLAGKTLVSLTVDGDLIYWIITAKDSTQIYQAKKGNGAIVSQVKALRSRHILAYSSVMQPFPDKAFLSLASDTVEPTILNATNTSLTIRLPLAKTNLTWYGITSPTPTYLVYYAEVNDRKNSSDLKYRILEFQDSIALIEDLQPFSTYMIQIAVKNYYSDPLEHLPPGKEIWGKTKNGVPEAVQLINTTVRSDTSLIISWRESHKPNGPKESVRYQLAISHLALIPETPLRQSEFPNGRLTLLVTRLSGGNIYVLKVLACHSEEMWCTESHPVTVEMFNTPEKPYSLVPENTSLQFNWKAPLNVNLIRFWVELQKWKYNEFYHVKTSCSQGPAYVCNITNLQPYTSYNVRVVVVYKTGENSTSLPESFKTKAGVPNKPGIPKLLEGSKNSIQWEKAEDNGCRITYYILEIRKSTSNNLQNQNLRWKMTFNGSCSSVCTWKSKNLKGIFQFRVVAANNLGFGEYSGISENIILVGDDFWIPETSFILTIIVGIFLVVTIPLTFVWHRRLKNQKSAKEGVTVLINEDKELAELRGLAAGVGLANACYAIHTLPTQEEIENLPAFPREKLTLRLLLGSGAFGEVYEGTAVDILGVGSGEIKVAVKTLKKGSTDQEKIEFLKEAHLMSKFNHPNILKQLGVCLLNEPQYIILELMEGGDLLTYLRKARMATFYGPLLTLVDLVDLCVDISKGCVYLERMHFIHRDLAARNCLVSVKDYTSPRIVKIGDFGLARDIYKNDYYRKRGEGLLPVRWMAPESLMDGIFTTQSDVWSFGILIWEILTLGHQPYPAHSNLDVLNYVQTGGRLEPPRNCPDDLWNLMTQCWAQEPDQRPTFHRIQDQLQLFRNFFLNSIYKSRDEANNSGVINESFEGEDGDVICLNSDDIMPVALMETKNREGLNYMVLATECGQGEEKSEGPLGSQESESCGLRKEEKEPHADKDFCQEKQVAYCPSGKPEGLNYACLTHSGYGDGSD
Answer with a number only.

CC(C)c1ccc(COc2ccc(-c3c(-c4ccncc4)nn4c3C(=O)N(CC3(C)COC3)CC4)cc2)cc1 [Compound 54]
7.3
CC(C)c1ccc(C(Oc2ccc(-c3c(-c4ccncc4)nn4c3C(=O)NCC4)cc2)C(=O)NCCO)cc1 (stereo not shown) [Compound 218]
6.3
CC(C)c1ccc(COc2ccc(-c3c(-c4ccncc4)nn4c3C(=O)N(CC(=O)N(C)C)CC4)cc2)cc1 [Compound 64]
7.1
CC(C)c1ccc(COc2ccc(-c3c(-c4ccncn4)nn4c3C(=O)N(CCO)CC4)cc2)cc1 [Compound 159]
7.3
CNC(=O)C(Oc1ccc(-c2c(-c3ccncc3)nn3c2C(=O)NCC3)cc1)c1ccc(C(C)C)cc1 (stereo not shown) [Compound 217]
6.3

Exam item: Which BaF3-ROS1-IL3 pIC50 value is on record for CC(C)c1ccc(COc2ccc(-c3c(-c4ccncc4)nn4c3C(=O)N(CCO)CC4)cc2)c(F)c1 [Compound 92] ?
Marked response: 7.2

---

biological target: Ros1 enzyme (Homo sapiens); construct: 0.5 μg/ml Ros1 enzyme; assay: Ros1 enzymatic assay; format: biochemical; settings: Ros1 enzymatic assay; read-out: ROS1 pIC50 (converted)
Sequence (P08922 28-2347): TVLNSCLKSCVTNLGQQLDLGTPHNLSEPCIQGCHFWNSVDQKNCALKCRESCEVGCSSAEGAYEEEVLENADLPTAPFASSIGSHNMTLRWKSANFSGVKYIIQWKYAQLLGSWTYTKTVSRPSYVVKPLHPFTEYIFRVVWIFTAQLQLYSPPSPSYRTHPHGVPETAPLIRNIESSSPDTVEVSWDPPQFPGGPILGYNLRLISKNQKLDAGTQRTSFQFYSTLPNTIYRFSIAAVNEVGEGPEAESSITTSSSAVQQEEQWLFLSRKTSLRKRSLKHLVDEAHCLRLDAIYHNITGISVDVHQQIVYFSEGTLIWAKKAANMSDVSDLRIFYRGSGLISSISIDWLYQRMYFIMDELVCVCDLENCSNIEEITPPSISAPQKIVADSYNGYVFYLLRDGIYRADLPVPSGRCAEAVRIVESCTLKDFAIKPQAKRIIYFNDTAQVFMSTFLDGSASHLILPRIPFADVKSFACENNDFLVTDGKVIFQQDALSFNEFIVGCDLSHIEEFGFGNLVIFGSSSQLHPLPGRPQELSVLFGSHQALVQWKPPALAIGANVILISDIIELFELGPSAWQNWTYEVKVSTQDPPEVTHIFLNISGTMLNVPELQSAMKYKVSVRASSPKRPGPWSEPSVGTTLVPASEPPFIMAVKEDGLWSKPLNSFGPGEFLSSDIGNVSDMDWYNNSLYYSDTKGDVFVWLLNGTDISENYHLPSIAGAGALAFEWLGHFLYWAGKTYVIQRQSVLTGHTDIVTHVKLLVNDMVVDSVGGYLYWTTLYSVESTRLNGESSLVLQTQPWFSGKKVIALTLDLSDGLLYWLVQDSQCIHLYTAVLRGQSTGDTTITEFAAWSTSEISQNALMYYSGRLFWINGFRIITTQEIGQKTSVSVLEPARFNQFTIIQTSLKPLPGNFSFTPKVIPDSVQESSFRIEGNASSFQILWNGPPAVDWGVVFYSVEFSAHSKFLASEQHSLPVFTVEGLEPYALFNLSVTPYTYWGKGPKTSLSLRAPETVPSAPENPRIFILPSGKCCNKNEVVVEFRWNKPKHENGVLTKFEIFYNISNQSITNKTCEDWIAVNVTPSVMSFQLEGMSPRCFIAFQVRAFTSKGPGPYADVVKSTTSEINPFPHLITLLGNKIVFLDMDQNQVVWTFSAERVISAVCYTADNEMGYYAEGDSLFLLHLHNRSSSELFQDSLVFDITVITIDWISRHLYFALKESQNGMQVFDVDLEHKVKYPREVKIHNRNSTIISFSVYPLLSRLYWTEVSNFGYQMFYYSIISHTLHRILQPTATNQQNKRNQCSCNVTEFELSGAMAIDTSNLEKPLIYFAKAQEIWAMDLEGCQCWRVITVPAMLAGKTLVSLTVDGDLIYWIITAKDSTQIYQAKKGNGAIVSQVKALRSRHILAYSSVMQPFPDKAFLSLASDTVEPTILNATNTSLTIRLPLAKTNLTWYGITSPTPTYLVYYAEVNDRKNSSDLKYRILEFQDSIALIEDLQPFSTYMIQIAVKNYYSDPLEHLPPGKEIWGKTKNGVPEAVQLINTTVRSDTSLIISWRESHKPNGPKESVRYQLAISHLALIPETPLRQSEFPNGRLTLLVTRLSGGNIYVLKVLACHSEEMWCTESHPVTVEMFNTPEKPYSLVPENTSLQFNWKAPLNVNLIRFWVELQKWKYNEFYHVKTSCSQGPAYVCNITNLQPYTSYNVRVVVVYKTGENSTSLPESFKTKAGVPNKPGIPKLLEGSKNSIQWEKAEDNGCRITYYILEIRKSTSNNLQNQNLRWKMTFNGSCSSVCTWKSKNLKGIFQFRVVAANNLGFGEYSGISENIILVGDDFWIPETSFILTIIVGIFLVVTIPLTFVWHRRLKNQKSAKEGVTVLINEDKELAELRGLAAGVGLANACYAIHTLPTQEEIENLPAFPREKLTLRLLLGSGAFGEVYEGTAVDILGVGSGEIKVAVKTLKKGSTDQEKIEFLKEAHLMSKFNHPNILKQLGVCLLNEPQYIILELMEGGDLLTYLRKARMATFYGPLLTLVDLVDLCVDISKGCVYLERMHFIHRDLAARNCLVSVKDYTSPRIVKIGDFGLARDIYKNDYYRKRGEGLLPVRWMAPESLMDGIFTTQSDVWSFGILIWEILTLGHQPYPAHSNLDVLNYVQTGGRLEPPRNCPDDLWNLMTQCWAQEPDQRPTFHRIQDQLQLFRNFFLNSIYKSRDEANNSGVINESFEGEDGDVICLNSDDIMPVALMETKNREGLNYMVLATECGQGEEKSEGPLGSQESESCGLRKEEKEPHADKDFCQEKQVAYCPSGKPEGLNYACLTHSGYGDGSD
IC50 under 100 nM gets yes, anything at or over 100 nM gets no.

Answered examples (5):
O=C1NCCn2nc(-c3ccncc3)c(-c3ccc(OCc4ccc(OC(F)(F)F)cc4)cc3)c21
no
CC(C)Cc1ccc(COc2ccc(-c3c(-c4ccncc4)nn4c3C(=O)NCC4)cc2)cc1
no
CC(C)c1ccc(COc2ccc(-c3c(-c4ccncn4)nn4c3C(=O)N(C)CC4)cc2)cc1
yes
N#CC1(c2ccc(COc3ccc(-c4c(-c5ccncc5)nn5c4C(=O)NCC5)cc3)cc2)CC1
yes
CC(C)c1ccc(COc2ccc(-c3c(-c4ccncc4)nn4c3C(=O)N(CC(O)CO)CC4)cc2)c(F)c1F (stereo not shown) [Compound 102]
no

Exam item: Criterion: IC50 strictly below 100 nM. Is it met by CNCC1Cn2nc(-c3ccncc3)c(-c3ccc(OCc4ccc(C(C)C)cc4)cc3)c2C(=O)N1 (stereo not shown) ?
Marked response: yes

Exam item: For `CC(C)Oc1cc(-c2c(-c3ccncc3)nn3c2C(=O)NCC3)ccc1OCc1ccc(C(C)C)cc1` then?
Marked response: no

---

molecular target: Ba/F3 cells containing Ros1 wild-type protein (Homo sapiens, UniProt P08922, cells depend on it, form not given); construct: The background only speaks of 'a number of different unrelated proteins' and names SLC34A2-ROS1 for HCC78 cells; test: Ba/F3-Ros1 cell proliferation assay, wild-type Ros1; assay type: cell-based, murine; settings: without IL-3
Output satisfied for BaF3-ROS1-IL3 pIC50 not less than 7; output not satisfied otherwise.

Here's what some known entries look like.
O=C1NCCn2nc(-c3ccncc3)c(-c3ccc(OCc4ccc(OC(F)(F)F)cc4)cc3)c21 [Compound 116]
satisfied
CC(CO)c1ccc(COc2ccc(-c3c(-c4ccncc4)nn4c3C(=O)NCC4)cc2)cc1 (stereo not shown) [Compound 127]
not satisfied
CC(C)c1ccc(COc2ccc(-c3c(-c4ccncc4)nn4c3C(=O)NCC4)nc2)cc1 [Compound 12]
not satisfied
CCOP(=O)(CCN1CCn2nc(-c3ccncc3)c(-c3ccc(OCc4ccc(C(C)C)cc4)cc3)c2C1=O)OCC [Compound 68]
not satisfied
CC(C)c1ccc(COc2ccc(-c3c(-c4ccncc4)nn4c3C(=O)N(CCN)CC4)cc2)cc1 [Compound 59a]
not satisfied

Moving on to the next molecule.
Exam item: # check: BaF3-ROS1-IL3 pIC50 of [2H]C([2H])(O)C([2H])([2H])N1CCn2nc(-c3ccncc3)c(-c3ccc(OCc4ccc(C(C)C)cc4)cc3)c2C1=O [Compound 67] is greater than or equal to 7
Marked response: satisfied
